- Tested on: DLD-1
- PROCEDURE_DETAILS: NCI tumour cell line growth inhibition, 48 h
Active and inactive are the calls of the source. Cut-off read from the data, not from the text of the source: active = GI50 up to about 1.1 µM and inactive = higher.
Outcome codes: T = active, F = inactive

| COMPOUND | CLASS_NAME |
| --- | --- |
| CC1C[C@]2(C[C@@H](C)C(=O)O2)OC2CC3(C)C4CCC5C(C)(C)OC(=O)CC[C@@]56C[C@@]46CC[C@]3(C)C12 (stereo partly drawn) | F |
| CC1=NN(C(=O)CC(=O)Nc2ccccc2)C(=O)C1/N=N/c1ccc(S(N)(=O)=O)cc1 (stereo not drawn) | F |
| Nc1ccc(C(=O)N/C(=C\c2cccc([N+](=O)[O-])c2)c2nc3c4c(ccc3[nH]2)C(=O)c2ccccc2C4=O)cc1 | F |
| COC(=O)C(=C/c1ccc(OC)cc1)/C(C(=O)O)=C(/C)c1ccccc1 | F |
| O=C1c2nc3n(c2C(=O)c2c1nc1n2CCC1)CCC3 | F |
| COc1ccccc1NC(=O)NS(=O)(=O)c1ccccc1 | F |
| O=NN(CCCl)C(=O)N[C@H]1CC[C@@H](C(=O)O)CC1 | F |
| CCCCc1c2c(nc3c1CCc1cc4cc5c(nc4nc1-3)-c1nc3c(c(CCCC)c1CC5)CCCC3)CCCC2 | F |
| C=C1c2[nH]c3c([N+](=O)[O-])c(OC)ccc3c2CCN1C(C)=O | F |
| C[C@@]12CCCC(=O)N1[C@@H](CO)C(c1ccccc1)O2 (stereo partly drawn) | F |
| NC1=C2C(Br)=CN([C@@H]3O[C@H](CO)[C@@H](O)[C@@H]3O)C2C(=O)N=N1 (stereo partly drawn) | T |
| Cn1cnc([N+](=O)[O-])c1Sc1nc2cccnc2[nH]1 | F |
| Nc1ccc(C(=O)NN2C(=O)C(Cl)C2c2ccccc2Cl)cc1 (stereo not drawn) | F |

====

- Tested on: SNB-19
- PROCEDURE_DETAILS: NCI tumour cell line growth inhibition, 48 h
The source made the active and inactive calls. No stated cut-off is given here; in the data, active = GI50 up to about 1.1 µM and inactive = higher.
Possible outcomes: y = active, n = inactive

| COMPOUND | CLASS_NAME |
| --- | --- |
| CCCCOC(=O)NC(=O)c1cn(CCCOC(=O)CCCCCCCCC(=O)OCCCn2cc(C(=O)NC(=O)OCCCC)c(=O)[nH]c2=O)c(=O)[nH]c1=O | n |
| c1ccc2c(c1)cc1c3[nH]c4ccccc4c3ccn21 | n |
| CCCCCCCCCCCC1=C(O)C(=O)C=C(O)C1=O | n |
| C/C(=N/NC(N)=S)c1ccc[nH]1 | n |
| O=C(c1cc(=O)c2ccc(O)cc2o1)c1ccc(Cl)cc1Cl | n |
| O=c1[nH]c(=O)n(COCc2ccccc2)c2ccc(Br)cc12 | n |
| CC1(Sc2ccccc2)CN(Cc2ccccc2)C1=O (stereo not given) | n |
| CC1=NN(C(=O)c2ccncc2)C(=O)C1 | n |
| CCNC(=S)Nc1c(C#N)c2n(c1C(=O)OCC)CCCCC2 | n |
| COc1cccc2c1C(=O)c1c(O)c3c(c(O)c1C2=O)C[C@@](O)(C(=O)CO)CC3OC1CC(O)C(O)C(C)O1 (stereo not given in full) | y |

====

- Tested on: OVCAR-8
- PROCEDURE_DETAILS: NCI tumour cell line growth inhibition, 48 h
Calls of active or inactive are those of the source. Rule as the data show it: active = GI50 up to about 1.1 µM and inactive = higher.

| COMPOUND | GI50 |
| --- | --- |
| COc1cccc(/C=C2\CCCc3ccccc3C2=O)c1 | 19.2 µM (inactive) |
| COC(=O)/C=C(/C=C1/C(C#N)=C(N)N(c2ccc(Cl)cc2)C1(C)/C(=C/C(=O)OC)C(=O)OC)C(=O)OC (configuration not stated) | 33.5 µM (inactive) |
| CC1OC(n2cc(Cl)c(=O)[nH]c2=O)C=C(OC(=O)c2ccccc2)C1=O (configuration not stated) | > 100 µM (inactive) |
| O=[N+]([O-])c1ccc(-[n+]2ccc3ccccc3c2)c([N+](=O)[O-])c1 | 2.47 µM (inactive) |
| CN(C)N1C(=O)c2ccccc2NC1c1ccccc1 (configuration not stated) | > 100 µM (inactive) |
| CN(Cc1cnc2nc(N)nc(N)c2n1)c1ccc(C(=O)NC2CCCCC2)cc1 | 14.2 µM (inactive) |
| COc1ccc2c(c1OC)C1=C(C2=O)c2cc3c(cc2CCN1)OCO3 | 39.9 µM (inactive) |

Reference for the values: ChEMBL document CHEMBL1201862
